tested on: Staphylococcus aureus (ATCC 6538); assay: Antibacterial activity test (MIC); type: cell-based; details: broth culture, 25 to 32° C., 24 to 72 hours; tested 0.01 to 10% (v/v)
Property measured: minimum inhibitory concentration, MIC, S. aureus

Record excerpt, results attached:
{"Compound": "C[C@H](O)[C@H](C)O [S,S-2,3-butanediol]", "Result": "2.5 % (v/v)"}
{"Compound": "C[C@H](O)[C@@H](C)O [Meso-2,3-butanediol, meso-2,3-butanediol]", "Result": "5 % (v/v)"}
{"Compound": "CC(O)CCO (stereo not drawn) [1,3-butanediol]", "Result": ">10 % (v/v)"}
{"Compound": "CCC(O)CO (stereo not drawn) [1,2-butanediol]", "Result": "1.25 % (v/v)"}
{"Compound": "CCCCC(O)CO (stereo not drawn) [1,2-hexanediol]", "Result": "2.5 % (v/v)"}

As a next step, examine the compound that follows.
Which minimum inhibitory concentration, MIC, S. aureus reading was recorded for the compound C[C@@H](O)[C@@H](C)O [R,R-2,3-butanediol] ? 10 % (v/v)
